tested on: gastrointestinal stem cells; experiment: Insulin / Nkx6.1 mRNA expression (qPCR), 3-stage conversion to insulin producing cells; assay type: cell-based, mouse; settings: added in Stage 3
Readout Type: Insulin mRNA expression

Cc1c[nH]c(-c2cnc(NCCNc3ccc(C#N)cn3)nc2-c2ccc(Cl)cc2Cl)n1 | greatly increased
N[C@@H](Cc1cc(I)c(Oc2ccc(O)c(I)c2)c(I)c1)C(=O)O | greatly increased

FYI, the data here is from patent US11021687B2.
